Each recorded value in this set is attributed to patent US10768161B2.

experiment: Ecological risk assessment of heavy metals in a lake basin sediment
details: Tr^i=S^i*(5/BPI)^x; lake BPI=6.7
Values of Toxicity response coefficient greater than or equal to 5 map to true (1); values below map to false (0).

>>> print(df.to_string())
   entry_smiles   category
0          [As]  false (0)
1          [Cd]   true (1)
2          [Ni]  false (0)

Then there is this compound:
Exam item: decide whether the reported Toxicity response coefficient for [Zn] is at least 5.
false (0)

###

System: aquatic organisms
experiment: Integration and normalization of release coefficient and HC5 to toxicity coefficient S^i
details: Table 4
From the text: (7) repeating steps (4) to (6) n times to obtain the release coefficient cs^i and toxic concentration HC5^i of each heavy metal determined in step (2), and integrating and normalizing the release coefficient cs^i and toxic concentration HC5^i of each heavy metal to obtain the toxicity coefficient S^i of the i^th heavy metal; Preferably, the integrating and normalizing regulation described in step (7) comprises the following calculation steps: […]
Listing of entries alongside the reported Toxicity coefficient.
Please state the value as a number alone, without comment.

See these solved cases before continuing.
>>> df
   entry_smiles  value_observed
0          [As]            1.50
1          [Cu]           17.00
2          [Ni]            5.50
3          [Cr]            1.00

Requested read-out: Toxicity coefficient. Entry: [Zn]
2.50

Requested read-out: Toxicity coefficient. Entry: [Cd]
28.00

Requested read-out: Toxicity coefficient. Entry: [Hg]
27.00

###

Listing of entries alongside the reported Square root (toxicity coefficient S^i).
Tested on: aquatic organisms
experiment: Integration and normalization of release coefficient and HC5 to toxicity coefficient S^i
details: final step of integration and normalization, Table 3
Please state the value as a number alone, without comment.

See these solved cases before continuing.
In [3]: df
Out[3]:
    compound          tested_on                        measurement_type  value_observed
0  [Cr] [Cr]  aquatic organisms  Square root (toxicity coefficient S^i)               1
1  [Cu] [Cu]  aquatic organisms  Square root (toxicity coefficient S^i)              17
2  [Zn] [Zn]  aquatic organisms  Square root (toxicity coefficient S^i)             2.5
3  [Ni] [Ni]  aquatic organisms  Square root (toxicity coefficient S^i)             5.5

Requested read-out: Square root (toxicity coefficient S^i). Entry: [Hg] [Hg]
27

Requested read-out: Square root (toxicity coefficient S^i). Entry: [Cd] [Cd]
28

Requested read-out: Square root (toxicity coefficient S^i). Entry: [As] [As]
1.5

###

experiment: Ecological risk assessment of heavy metals in a lake basin sediment
details: ecological risk index Er^i=Tr^i*cf^i for the lake
Labelling field: enter 1 if recorded Pollution risk index is less than 4. Enter 0 if it equals or exceeds that cut-off.

# count of solved cases: 2
>>> df
   entry_smiles  category
0          [As]         1
1          [Hg]         0

Record [Ni] : is its Pollution risk index strictly below 4?
1

Record [Cu] : is its Pollution risk index strictly below 4?
0

Record [Cd] : is its Pollution risk index strictly below 4?
0

Record [Zn] : is its Pollution risk index strictly below 4?
1

Record [Cr] : is its Pollution risk index strictly below 4?
1

###

experiment: Ecological risk assessment of heavy metals in a lake basin sediment
details: Tr^i=S^i*(5/BPI)^x; lake BPI=6.7
measurement.type: Toxicity response coefficient
Please state the value as a number alone, without comment.

>>> df
   entry_smiles               measurement_type  value_observed
0          [Hg]  Toxicity response coefficient           20.15
1          [Cu]  Toxicity response coefficient           14.69

Here's the next entry for you.
Requested read-out: Toxicity response coefficient. Entry: [Cr]
0.86
